- SYSTEM UNDER TEST: CFTR-mediated chloride transport in human intestinal epithelial enteroid cells (Homo sapiens, UniProt P13569)
- Sequence (P13569 with tags, fused parts or gaps DEL508-508): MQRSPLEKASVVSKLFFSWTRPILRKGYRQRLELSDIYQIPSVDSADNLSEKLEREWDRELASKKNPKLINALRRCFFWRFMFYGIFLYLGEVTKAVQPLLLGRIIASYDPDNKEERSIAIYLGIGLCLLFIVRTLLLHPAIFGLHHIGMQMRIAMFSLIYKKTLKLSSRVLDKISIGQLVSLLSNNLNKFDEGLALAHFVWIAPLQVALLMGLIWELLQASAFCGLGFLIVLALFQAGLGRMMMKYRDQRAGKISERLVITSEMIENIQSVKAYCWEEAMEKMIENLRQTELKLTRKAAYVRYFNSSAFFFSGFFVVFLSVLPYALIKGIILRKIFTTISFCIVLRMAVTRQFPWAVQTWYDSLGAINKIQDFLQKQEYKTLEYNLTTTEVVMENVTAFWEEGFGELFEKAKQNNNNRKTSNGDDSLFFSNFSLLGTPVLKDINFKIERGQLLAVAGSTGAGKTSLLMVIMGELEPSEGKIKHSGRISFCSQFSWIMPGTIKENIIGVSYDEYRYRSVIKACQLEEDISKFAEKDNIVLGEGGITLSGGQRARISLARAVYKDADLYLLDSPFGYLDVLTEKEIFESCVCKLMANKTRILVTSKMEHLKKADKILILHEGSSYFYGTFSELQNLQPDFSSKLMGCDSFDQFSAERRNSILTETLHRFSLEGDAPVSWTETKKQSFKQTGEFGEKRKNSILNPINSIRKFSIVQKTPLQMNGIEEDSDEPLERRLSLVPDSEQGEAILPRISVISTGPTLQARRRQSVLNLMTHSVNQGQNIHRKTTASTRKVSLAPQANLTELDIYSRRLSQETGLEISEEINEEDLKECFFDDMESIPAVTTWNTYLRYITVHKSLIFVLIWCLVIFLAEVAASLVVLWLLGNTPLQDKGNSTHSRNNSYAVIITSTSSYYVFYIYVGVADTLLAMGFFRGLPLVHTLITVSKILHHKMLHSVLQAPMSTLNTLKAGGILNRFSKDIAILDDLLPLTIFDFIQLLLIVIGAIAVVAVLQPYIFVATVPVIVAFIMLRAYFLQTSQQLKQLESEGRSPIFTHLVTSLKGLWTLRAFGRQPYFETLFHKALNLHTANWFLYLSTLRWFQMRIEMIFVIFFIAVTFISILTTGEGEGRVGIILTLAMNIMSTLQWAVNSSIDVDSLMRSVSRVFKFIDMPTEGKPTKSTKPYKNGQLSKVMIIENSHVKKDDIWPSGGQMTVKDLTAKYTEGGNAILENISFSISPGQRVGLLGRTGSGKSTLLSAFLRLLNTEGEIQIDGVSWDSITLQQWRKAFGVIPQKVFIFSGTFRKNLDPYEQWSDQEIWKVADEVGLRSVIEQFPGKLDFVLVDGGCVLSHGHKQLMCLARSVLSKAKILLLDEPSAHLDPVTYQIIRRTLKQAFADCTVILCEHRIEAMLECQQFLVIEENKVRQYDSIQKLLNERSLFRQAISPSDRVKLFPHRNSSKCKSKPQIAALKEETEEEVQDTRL
- EXPERIMENT NOTES: Membrane potential dye, Enteroid Assay B
- Format: cell-based
- TEST CONTEXT: Enteroid Assay B; read-out: Ent. B EC50
- Method: Base medium (ADF+++) consisted of Advanced DMEM/Ham's F12, 2 mM Glutamax, 10 mM HEPES, […] penicillin/streptomycin. Bath 1 Buffer consisted of 1 mM MgCl2, 160 mM NaCl, 4.5 mM KCl, 10 mM HEPES, 10 mM Glucose, 2 mM CaCl2. […] Briefly, cells were washed 5 times in Bath 1 Buffer. […] Chloride transport was initiated by addition of Chloride Free Dye Stimulation Solution and the fluorescence signal was read for 15 min.
pEC50: −log10 of the molar value.
PROPERTY: pEC50

Use these answered entries as a reference point.
MOLECULE	PROPERTY	RECORDED RESULT
Cc1cccc(C)c1-c1cc2nc(n1)NS(=O)(=O)c1cccc(c1)C(=O)N1CCN(C3CC4(CCCC4)C3)[C@H](CC(C)C)[C@H](C1)O2 [Compound 119]	pEC50	> 6.00
Cc1cccc(C)c1-c1cc2nc(n1)NS(=N)(=O)c1cccc(c1)C(=O)N1CCN(CCC(C)(C)C)CC(C1)O2 (stereo not drawn) [Compound 243]	pEC50	> 6.00

Proceed to the following item.
Item under review: Cc1cccc(C)c1-c1cc2nc(n1)NS(=O)(=O)c1cccc(c1)C(=O)N1CCN(C(=O)CC(C)(C)C)[C@H](CC(C)C)[C@H](C1)O2 [Compound 122] . Reported pEC50?
> 6.00

###

- SYSTEM UNDER TEST: CFTR-mediated chloride transport in human intestinal epithelial enteroid cells (Homo sapiens, UniProt P13569)
- EXPERIMENT NOTES: Membrane potential dye, Enteroid Assay A
- Assay type: cell-based
- TEST CONTEXT: percentage of chloride transport of triple combination control (3 μM N-[(6-amino-2-pyridyl)sulfonyl]-6-(3-fluoro-5-isobutoxy-phenyl)-2-[(4S)-2,2,4-trimethylpyrrolidin-1-yl]pyridine-3-carboxamide based)

COMPOUND	Ent. A Max Activity (%)
Cc1cccc(C)c1-c1cc2nc(n1)NS(=O)(=O)c1cccc(c1)C(=O)N1CCN(C)C(CO2)C1 (stereo not drawn)	+ (+ is <300%)
Cc1cccc(C)c1-c1cc2nc(n1)NS(=O)(=O)c1cccc(c1)C(=O)N1CCN(C(=O)NCc3ccccc3)C[C@@H]1CO2	+ (+ is <300%)

###

- SYSTEM UNDER TEST: CFTR-mediated chloride transport in human intestinal epithelial enteroid cells (Homo sapiens)
- EXPERIMENT NOTES: Membrane potential dye, Enteroid Assay A
- Assay type: cell-based
- TEST CONTEXT: Enteroid Assay A; read-out: Ent. A EC50
pEC50: −log10 of the molar value.
PROPERTY: pEC50

Use these answered entries as a reference point.
COMPOUND	RECORDED RESULT
Cc1cccc(C)c1-c1cc2nc(n1)NS(=O)(=O)c1cccc(c1)C(=O)N1CCN(Cc3ccccc3)CC(C)(C1)O2 (stereo not drawn)	5.52 to 6.00
Cc1cccc(C)c1-c1cc2nc(n1)NS(=O)(=O)c1cccc(c1)C(=O)N1CCN([C@@H](C)C(C)(C)C)C[C@H](C1)O2 (single isomer, unassigned) [Compound 72]	> 6.00
Cc1cccc(C)c1-c1cc2nc(n1)NS(=O)(=O)c1cccc(c1)CN1C[C@@H](CN(Cc3ccccc3)CC1=O)O2 (stereo in doubt)	> 6.00
Cc1cccc(C)c1-c1cc2nc(n1)NS(=O)(=O)N1CCc3ccc(cc31)C(=O)N1Cc3ccccc3[C@@H](O2)[C@H]1CC(C)C [Compound 250]	5.52 to 6.00
Cc1cccc(C)c1-c1cc2nc(n1)NS(=O)(=O)c1cccc(c1)C(=O)N1C[C@@H](CN(C)C[C@H]1CC(C)C)O2	> 6.00

Proceed to the following item.
Item under review: Cc1cccc(C)c1-c1cc2nc(n1)NS(=O)(=O)c1cccc(c1)C(=O)N1CCN(CCC(C)(C)C)C[C@H](O2)[C@H]1CC(C)C . Reported pEC50?
> 6.00

###

- SYSTEM UNDER TEST: CFTR-mediated chloride transport in human intestinal epithelial enteroid cells (Homo sapiens)
- EXPERIMENT NOTES: Membrane potential dye, Enteroid Assay A
- Format: cell-based
- TEST CONTEXT: enteroid cells incubated with test compound 18-24 hours; acute 10 μM forskolin and 300 nM N-[2,4-bis(1,1-dimethylethyl)-5-hydroxyphenyl]-1,4-dihydro-4-oxoquinoline-3-carboxamide; read-out: Ent. A EC50
pEC50: −log10 of the molar value.
PROPERTY: pEC50

Use these answered entries as a reference point.
COMPOUND	RECORDED RESULT
Cc1cccc(C)c1-c1cc2nc(n1)NS(=O)(=O)c1cccc(c1)C(=O)N1CCN(Cc3ccccc3C#N)CC(C1)O2 (stereo not drawn)	> 6.00
Cc1cccc(C)c1-c1cc2nc(n1)NS(=O)(=O)c1cccc(c1)C(=O)N1Cc3ccccc3[C@@H](O2)[C@H]1CC(C)C (stereo in doubt)	> 6.00

Proceed to the following item.
Item under review: Cc1cccc(C)c1-c1cc2nc(n1)NS(=O)(=O)c1cccc(c1)C(=O)N1CCN(Cc3ccccc3)C[C@@H](C1)O2 . Reported pEC50?
5.52 to 6.00

###

- SYSTEM UNDER TEST: CFTR-mediated chloride transport in human intestinal epithelial enteroid cells (Homo sapiens, UniProt P13569)
- EXPERIMENT NOTES: Membrane potential dye, Enteroid Assay A
- Format: cell-based
- TEST CONTEXT: Enteroid Assay A
PROPERTY: Ent. A Max Activity (%)

MOLECULE	PROPERTY	RECORDED RESULT
Cc1cccc(C)c1-c1cc2nc(n1)NS(=O)(=O)c1cccc(c1)C(=O)N1CCN(C3CC(F)(F)C3)C[C@H](C1)O2	Ent. A Max Activity (%)	+++ (+++ is >600%)
Cc1cccc(C)c1-c1cc2nc(n1)NS(=O)(=O)c1cccc(c1)C(=O)N1CCN(C3CCC4(CC3)CC4)C[C@H](C1)O2	Ent. A Max Activity (%)	+++ (+++ is >600%)
Cc1cccc(C)c1-c1cc2nc(n1)NS(=O)(=O)c1cccc(c1)C(=O)N1CCN([C@H]3CC[C@@H](F)CC3)C[C@H](C1)O2 (single isomer, unassigned) [Compound 38]	Ent. A Max Activity (%)	+++ (+++ is >600%)
Cc1cccc(C)c1-c1cc2nc(n1)NS(=O)(=O)c1cccc(c1)C(=O)N1C[C@@H](CN(C)C[C@@H]1C(C)C)O2	Ent. A Max Activity (%)	+++ (+++ is >600%)
Cc1cccc(C)c1-c1cc2nc(n1)NS(=O)(=O)c1cccc(c1)C(=O)N1C[C@@H](CN(C)C[C@H]1C(C)C)O2	Ent. A Max Activity (%)	+++ (+++ is >600%)

Provide the reported Ent. A Max Activity (%) of each entry below, same order.
1. Cc1cccc(C)c1-c1cc2nc(n1)NS(=O)(=O)c1cccc(c1)C(=O)N1C[C@@H](CN(C(=O)OC(C)(C)C)C[C@@H]1CC(C)C)O2
2. Cc1cccc(C)c1-c1cc2nc(n1)NS(=O)(=O)c1cccc(c1)C(=O)N1C[C@@H](CN(CCC(C)(C)C)C[C@H]1CC(C)C)O2
3. Cc1cccc(C)c1-c1cc2nc(n1)NS(=O)(=O)c1cccc(c1)C(=O)N1C[C@@H](CNC[C@@H]1CCC(C)C)O2
4. Cc1cccc(C)c1-c1cc2nc(n1)NS(=O)(=O)c1cccc(c1)C(=O)N1C[C@@H](CN(C3CC4(CCCCC4)C3)C[C@H]1C(C)C)O2
5. Cc1cccc(C)c1-c1cc2nc(n1)NS(=N)(=O)c1cccc(c1)C(=O)N1CCN(Cc3ccccc3)CC(C1)O2 (stereo not drawn) [Compound 246]
6. Cc1cccc(C)c1-c1cc2nc(n1)NS(=O)(=O)c1cccc(c1)C(=O)N1C[C@@H](CN(Cc3ccccc3)[C@@H](CC(C)C)C1)O2
7. Cc1cccc(C)c1-c1cc2nc(n1)NS(=O)(=O)c1cccc(c1)C(=O)N1CCN(C(=O)OC(C)(C)C)[C@@H](CC(C)C)[C@@H](C1)O2

1: ++ (++ is 30-60%); 2: +++ (+++ is >600%); 3: +++ (+++ is >600%); 4: ++ (++ is 30-60%); 5: ++ (++ is 30-60%); 6: +++ (+++ is >600%); 7: ++ (++ is 30-60%)

Provide the reported Ent. A Max Activity (%) of each entry below, same order.
1. Cc1cccc(C)c1-c1cc2nc(n1)NS(=O)(=O)c1cccc(c1)C(=O)N1CCN(Cc3ccc(C(C)(C)C)cc3)C[C@H](C1)O2
2. Cc1cccc(C)c1-c1cc2nc(n1)NS(=O)(=O)c1cccc(c1)C(=O)N1Cc3cc(C(C)(C)C)ccc3C(C1)O2 (single isomer, unassigned) [Compound 183]
3. Cc1cccc(C)c1-c1cc2nc(n1)NS(=O)(=O)c1cccc(c1)C(=O)N1CCN(C3CC4(CCC4)C3)C[C@H](C1)O2
4. Cc1cccc(C)c1-c1cc2nc(n1)NS(=O)(=O)c1cccc(c1)C(=O)N1CCN(C3CCC3(C)C)C[C@H](C1)O2 (single isomer, unassigned) [Compound 10]
5. Cc1cccc(C)c1-c1cc2nc(n1)NS(=O)(=O)c1cccc(c1)C(=O)N1CCN(C3CCC4(CCCCC4)CC3)C[C@H](C1)O2
6. Cc1cccc(C)c1-c1cc2nc(n1)NS(=O)(=O)c1cccc(c1)C(=O)N1C[C@@H](CN(C3CC4(CCCCC4)C3)C[C@@H]1CC(C)C)O2

["+++ (+++ is >600%)", "+++ (+++ is >600%)", "+++ (+++ is >600%)", "+++ (+++ is >600%)", "+++ (+++ is >600%)", "++ (++ is 30-60%)"]

Provide the reported Ent. A Max Activity (%) of each entry below, same order.
1. Cc1cccc(C)c1-c1cc2nc(n1)NS(=O)(=O)c1cccc(c1)CN1C[C@@H](CN(CCC(C)(C)C)CC1=O)O2
2. Cc1cccc(C)c1-c1cc2nc(n1)NS(=O)(=O)c1cccc(c1)C(=O)N1CC3C(CCCN3C)[C@@H](C1)O2 (single isomer, unassigned)
3. Cc1cccc(C)c1-c1cc2nc(n1)NS(=O)(=O)c1cccc(c1)C(=O)N1CCN(CCC3(C(F)(F)F)CC3)CC(C1)O2 (single isomer, unassigned)
4. Cc1cccc(C)c1-c1cc2nc(n1)NS(=O)(=O)c1cccc(c1)C(=O)N1CCN(Cc3ccccc3)C[C@H](O2)[C@H]1CC(C)C
5. Cc1cccc(C)c1-c1cc2nc(n1)NS(=O)(=O)c1cncc(c1)C(=O)N1Cc3cc(C(C)(C)C)ccc3[C@H](O2)[C@H]1CC(C)C
6. Cc1cccc(C)c1-c1cc2nc(n1)NS(=O)(=O)c1cccc(c1)C(=O)N1C[C@@H](CN(C3CCC(F)(F)CC3)[C@@H](CC(C)C)C1)O2

1. ++ (++ is 30-60%)
2. ++ (++ is 30-60%)
3. +++ (+++ is >600%)
4. +++ (+++ is >600%)
5. +++ (+++ is >600%)
6. +++ (+++ is >600%)
